Provenance of the data: patent US20140243319A1

System: ASPC-1
Assay: MTT cell viability assay in ASPC-1 pancreatic cancer cells
Format: cell-based
Conditions: Homo sapiens, ASPC1; ASPC-1 cells; read-out: IC50 values of cell death
property.label: IC50

Request: Notebook: pull reported IC50 for ASPC-1, entry CNCCCN1c2ccccc2CCc2ccccc21 [DMI, desipramine]
Response: > 50 µM

----------
Test system: Colo-357
Assay: MTT cell viability assay in Colo-357 pancreatic cancer cells
Format: cell-based
Conditions: Homo sapiens, COLO357; Colo-357 cells; read-out: IC50 values of cell death
pIC50: −log10 of the molar value.
property.label: pIC50

Request: Name the recorded pIC50 for CNCCCN1c2ccccc2CCc2ccccc21 .
Response: < 4.30
